Origin of values: paper PMC8770581

Experiment: Absorption/emission maxima and fluorescence quantum yield of free ligand in PBS
Assay type: physicochemical
Details: free ligand in PBS
Listed below: Emmax values for each entry.
Write the value as a bare number.

>>> reported("CN(C)c1ccc(-c2ccc(/C=C/C=C3\\Cc4ccc(O)cc4C3=O)cc2)cc1")
597

Q: Entry COc1cc(-c2ccc(/C=C3/Cc4ccccc4C3=O)s2)ccc1O : reported Emmax = ?
Ans: 575

Q: O=C1C(=Cc2cc(-c3ccc(Br)cc3)no2)C(=O)c2ccccc21 , same question.
Ans: 409
